- MEASUREMENT_NOTES: Inhibition of HIV1 reverse transcriptase 41L/69S-SG/184V/210W/215Y mutant in presence of 5 mM ATP by heteropolymeric DNA polymerase assay
- Parameters: species or system Human immunodeficiency virus 1
Reported pIC50 values follow for various molecules
To interpret pIC50, take it as minus log10 of a concentration measured in moles per litre.

Nc1nc(=O)c2ncn([C@H]3C=C[C@@H](COP(=O)(O)OP(=O)(O)OP(=O)(O)O)C3)c2[nH]1 [CARBOVIR 5'-TRIPHOSPHATE, (-)-]; 5.19

Query :: Requested field: pIC50. Item: Nc1nc2c(ncn2[C@H]2CO[C@@H](COP(=O)(O)OP(=O)(O)OP(=O)(O)O)O2)c(=O)[nH]1
Result :: 6.59

Query :: Requested field: pIC50. Item: Cc1cn([C@H]2C[C@H](N=[N+]=[N-])[C@@H](COP(=O)(O)OP(=O)(O)OP(=O)(O)O)O2)c(=O)[nH]c1=O [ZIDOVUDINE TRIPHOSPHATE]
Result :: 5.92

Query :: Requested field: pIC50. Item: Cc1cn([C@H]2CO[C@@H](COP(=O)(O)OP(=O)(O)OP(=O)(O)O)O2)c(=O)[nH]c1=O
Result :: 5.85
